Target: T1, RADIL, Q96JH8
T1 sequence (Q96JH8 971-1071, limits assumed, looked up): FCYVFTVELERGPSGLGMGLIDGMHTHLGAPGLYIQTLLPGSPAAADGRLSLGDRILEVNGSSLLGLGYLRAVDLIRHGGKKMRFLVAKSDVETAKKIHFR
Assay: holdup assay
Design: key: below the threshold = too weak to quantify, mostly under pKd 3.1 to 4
Conditions: plain residues with an end cap or a label only (N-terminal biotin on a linker: ttds)
assayReadout: pKd

binder	assayValue
LCALPKVTTV [AGMAT, Q9BSE5]	4.59
GGPKEEESPV [SLC16A1, P53985]	below the threshold
DPLTPSRSQL [DGKK, Q5KSL6]	below the threshold
VNKVWDQSSV [CIT, O14578]	below the threshold
DPRNTQTSQI [ABRAXAS2, Q15018]	below the threshold
RTRQRNETQV [HPV51-E6, P26554]	3.82
PKRPFVESNV [TANC2, Q9HCD6]	below the threshold
